Target: T1, human MSLN-R3 protein (Met487-Ser606 of NCBI AAH09272.1) expressed on HEK293T-hMSLN-R3 cells (human, UniProt Q13421 487-606)
T1 construct: also called Region3
T1 sequence (Q13421 495-614): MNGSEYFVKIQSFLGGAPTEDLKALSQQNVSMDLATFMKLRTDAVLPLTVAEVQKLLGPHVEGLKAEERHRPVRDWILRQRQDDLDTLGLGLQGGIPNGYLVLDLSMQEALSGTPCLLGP
Assay: FACS on HEK293T-hMSLN-R3 cells
Hi there, I'd appreciate the recorded pEC50 for every entry that follows.
Answer as the number alone; pEC50 is minus log10 of concentration in mol/L.

input: Look up pEC50: S009-F3.7.3 (antibody, human IgG1, kappa, V domains shown, human-murine chimeric antibody, human IgG1/kappa constant regions) VH: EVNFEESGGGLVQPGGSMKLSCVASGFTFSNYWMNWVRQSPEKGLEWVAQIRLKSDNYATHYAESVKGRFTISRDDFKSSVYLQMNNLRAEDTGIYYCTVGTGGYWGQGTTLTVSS VL: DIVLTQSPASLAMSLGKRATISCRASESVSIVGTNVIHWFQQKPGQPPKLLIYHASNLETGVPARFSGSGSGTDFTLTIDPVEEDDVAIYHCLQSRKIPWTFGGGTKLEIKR
output: 9.14

input: Look up pEC50: S009-F3.80.22 (antibody, human IgG1, kappa, V domains shown, human-murine chimeric antibody, human IgG1/kappa constant regions) VH: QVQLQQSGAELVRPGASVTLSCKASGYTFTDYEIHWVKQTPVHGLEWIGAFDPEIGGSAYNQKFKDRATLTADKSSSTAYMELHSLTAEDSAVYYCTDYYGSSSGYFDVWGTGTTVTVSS VL: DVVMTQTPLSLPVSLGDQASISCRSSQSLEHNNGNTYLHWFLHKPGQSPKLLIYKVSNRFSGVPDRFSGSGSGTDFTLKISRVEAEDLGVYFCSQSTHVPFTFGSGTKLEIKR
output: 9.00

input: Look up pEC50: S009-F3.38.10 (antibody, human IgG1, kappa, V domains shown, human-murine chimeric antibody, human IgG1/kappa constant regions) VH: EVQLQQSGPVLVKPGASVKMSCEASGYIFTDYYMNWVKKSHGKSLEWIGVINPKNGVISHNQKFKGKATLTVDKSSNTAYMELSSLTSEDSAVYYCANYGSRFYAMDYWGQGTSVTVSS VL: DVVMTQTPLSLPVSLGDQASISCRSSQSLIHSDGNTYLQWYLQKSGQSPKLLIYKVSNRFSGVPDRFSGSGSGTDFTLKISRVETEDLGVYFCSQTTHVPFTFGSGTKLEIKR
output: 8.47

input: Look up pEC50: S009-F3.16.1 (antibody, human IgG1, kappa, V domains shown, human-murine chimeric antibody, human IgG1/kappa constant regions) VH: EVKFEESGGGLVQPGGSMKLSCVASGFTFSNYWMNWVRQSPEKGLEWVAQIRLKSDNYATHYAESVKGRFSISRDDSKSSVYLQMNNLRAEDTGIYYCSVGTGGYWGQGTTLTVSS VL: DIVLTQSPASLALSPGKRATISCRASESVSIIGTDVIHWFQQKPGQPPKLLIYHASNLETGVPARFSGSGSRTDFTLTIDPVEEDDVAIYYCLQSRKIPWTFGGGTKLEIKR
output: 9.37
